Biological target: T1, human GIP receptor (human) (UniProt P48546)
T1 sequence (looked up): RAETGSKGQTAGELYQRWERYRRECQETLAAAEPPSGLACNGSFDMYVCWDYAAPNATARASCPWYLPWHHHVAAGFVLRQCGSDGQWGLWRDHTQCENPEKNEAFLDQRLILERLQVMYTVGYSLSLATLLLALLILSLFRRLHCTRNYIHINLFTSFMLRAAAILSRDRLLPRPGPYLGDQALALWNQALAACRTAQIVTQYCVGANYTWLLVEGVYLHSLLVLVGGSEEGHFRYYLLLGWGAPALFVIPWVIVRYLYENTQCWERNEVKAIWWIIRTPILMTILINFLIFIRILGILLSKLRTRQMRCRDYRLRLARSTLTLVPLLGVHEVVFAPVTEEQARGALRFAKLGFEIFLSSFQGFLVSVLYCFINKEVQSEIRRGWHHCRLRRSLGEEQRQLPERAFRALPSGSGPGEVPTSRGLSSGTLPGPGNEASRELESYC
Test: cell-based or functional assay
Starred links: 1 amine or outer side, 2 acyl side, 3 side chain; linkers in the order of their positions; H or OH if unused. Non-standard residues stand in square brackets, D forms with d. Groups on a side chain read outwards from the residue. No end group written: not given here. *: point of attachment. C20 diacid = O=C(O)CCCCCCCCCCCCCCCCCCC(=O)*; αMePhe(2-F) = C[C@](N)(Cc1ccccc1F)C(=O)O; γGlu = O=C(O)[C@H](CCC(=O)[*:2])N[*:1]; AEEA = NCCOCCOCC(=O)O; Aib = CC(C)(N)C(=O)O
Please note: cAMP Rel EC50 (in the presence of 1% HSA) exactly at 0.8 nM is condition not met. Only values below 0.8 nM get condition met.

binder="YXQGTXTSDXXIXLDXKAQXEFIEXLVEGGPSSGEPPPEGE (not fully specified; non-natural residues; AEEA-γGlu-C18 diacid on Lys; C-terminal amide; synthetic construct; SITE 2: note = 2-Aminoisobutyric Acid; SITE 6: note = alpha-methyl-2-fluoro-L-phenylalanine; SITE 10: note = 3-(4-Pyridyl)-L-alanine; SITE 11: note = alpha-methyl-L-serine; SITE 13: note = alpha-methyl-leucine; SITE 16: note = L-ornithine; SITE 17: note = Lysine is chemically mo) [Example 1159]" label_value="condition not met"
binder="YXQGTXTSDXXIXLDXKAQXEFIEXLIEGGPPSXXPPPEGE (Aib, αMeF(2F), 4Pal, αMeS, αMeL, Orn, Me4Pal, αMeY; lipidated Lys; amide; synthetic construct; SITE 2: note = 2-Aminoisobutyric Acid; SITE 6: note = alpha-methyl-2-fluoro-L-phenylalanine; SITE 10: note = 3-(4-Pyridyl)-L-alanine; SITE 11: note = alpha-methyl-L-serine; SITE 13: note = alpha-methyl-leucine; SITE 16: note = L-ornithine; SITE 17: note = Lysine is chemically mo) [Example 1194]" label_value="condition met"
binder="YXQGTFTSDFSKXLDKKAQXAFIEYLLEAGPSSGAPPPGEG (not fully specified; synthetic construct; SITE 2: note = 2-Aminoisobutyric Acid; SITE 13: note = alpha-methyl-leucine; SITE 17: note = Lysine is chemically modified through conjugation of the epsilon-amino group of the Lysine side chain with (2-[2-(2-Amino-ethoxy)-ethoxy]-acetyl)-(gamma-Glu)-CO-(CH2) 18-CO2H; SITE 20: n) [Example 34]" label_value="condition not met"
binder="YXQGTXTSDXXIXLDXKAQXEFIEXLIEGGPSSGEPPPSGE (non-natural residues; lipidated Lys; C-terminal amide; synthetic construct; SITE 2: note = 2-Aminoisobutyric Acid; SITE 6: note = alpha-methyl-L-phenylalanine; SITE 10: note = 3-(4-Pyridyl)-L-alanine; SITE 11: note = alpha-methyl-L-serine; SITE 13: note = alpha-methyl-leucine; SITE 16: note = L-ornithine; SITE 17: note = Lysine is chemically modified th) [Example 1165]" label_value="condition not met"
binder="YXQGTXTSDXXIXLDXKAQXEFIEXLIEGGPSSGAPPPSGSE (acylated Lys (γGlu)2-C18 diacid; non-natural residues; C-terminal amide; synthetic construct; SITE 2: note = 2-Aminoisobutyric Acid; SITE 6: note = alpha-methyl-L-phenylalanine; SITE 10: note = 3-(4-Pyridyl)-L-alanine; SITE 11: note = alpha-methyl-L-serine; SITE 13: note = alpha-methyl-leucine; SITE 16: note = L-ornithine; SITE 17: note = Lysine is chemically modified th) [Example 1172]" label_value="condition met"
binder="YXQGTXTSDXXIXLDXKAQXEFIEXLIEGGPSSGAPPPSGE (non-natural residues; lipidated Lys; C-terminal amide; synthetic construct; SITE 2: note = 2-Aminoisobutyric Acid; SITE 6: note = alpha-methyl-2-fluoro-L-phenylalanine; SITE 10: note = 3-(4-Pyridyl)-L-alanine; SITE 11: note = alpha-methyl-L-serine; SITE 13: note = alpha-methyl-leucine; SITE 16: note = L-ornithine; SITE 17: note = Lysine is chemically mo) [Example 1176]" label_value="condition met"
binder="Y[Aib]QGT[αMePhe(2-F)]TSDYSILLDKIAQK([AEEA-γGlu-C20 diacid])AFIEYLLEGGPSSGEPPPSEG-NH2 [Example 293]" label_value="condition not met"
binder="YXQGTFTSDXSKXLDKKAQXAFIEYLIAXGESSGEPPPSGS (non-natural residues (Aib, 4Pal, αMeL); lipidated K; C-terminal amide; synthetic construct; SITE 2: note = 2-Aminoisobutyric Acid; SITE 10: note = 3-(4-Pyridyl)-L-alanine; SITE 13: note = alpha-methyl-leucine; SITE 17: note = Lysine is chemically modified through conjugation of the epsilon-amino group of the Lysine side chain with (2-[2-(2-Amino-ethoxy)-ethoxy]-acetyl)) [Example 287]" label_value="condition not met"

Now let's try a different one.
Incoming: Lab note: cAMP Rel EC50 (in the presence of 1% HSA) threshold 0.8 nM. Does this binder come in strictly under it? YXQGTXTSDXXIXLDXKAQXEFIEXLIEGGPPSXXPPPXGS (non-natural residues, acylated Lys (AEEA-γGlu-C18 diacid), C-terminal amide; synthetic construct; SITE 2: note = 2-Aminoisobutyric Acid; SITE 6: note = alpha-methyl-2-fluoro-L-phenylalanine; SITE 10: note = 3-(4-Pyridyl)-L-alanine; SITE 11: note = alpha-methyl-L-serine; SITE 13: note = alpha-methyl-leucine; SITE 16: note = L-ornithine; SITE 17: note = Lysine is chemically mo) [Example 1189]
Outgoing: condition met
